# target-desc: single-chain tethered dimer of HIV protease (Human immunodeficiency virus 1)
# test-details: biochemical
# Assay type: biochemical
# Set-up: fused on or other part: A second copy of the same protease unit is joined to the first by a short peptide tether, giving one polypeptide
# stated-conditions: Table 2d; HIV protease inhibition, HPLC method; read-out: HPLC K1

{"columns": ["molecule", "Ki"],
 "data": [
  ["Cl.Cl.O=C(NCCCCCN1C(=O)N(CCCCCNC(=O)OCc2cccnc2)C(Cc2ccccc2)C(O)C(O)C1Cc1ccccc1)OCc1cccnc1 (stereo not shown) [15EU]", "< 10 nM"],
  ["CC(C)(C)OC(=O)NN=Cc1cccc(CN2C(=O)N(Cc3cccc(C=NNC(=O)OC(C)(C)C)c3)C(Cc3ccccc3)C(O)C(O)C2Cc2ccccc2)c1 (stereo not shown) [15AL]", "10 to 1000 nM"],
  ["O=C(NCCCCCN1C(=O)N(CCCCCNC(=O)c2ccccc2)C(Cc2ccccc2)C(O)C(O)C1Cc1ccccc1)c1ccccc1 (stereo not shown) [15EX]", "10 to 1000 nM"],
  ["CC(=O)NCCCCCN1C(=O)N(CCCCCNC(C)=O)C(Cc2ccccc2)C(O)C(O)C1Cc1ccccc1 (stereo not shown) [15ET]", "10 to 1000 nM"]
]}
